meta.source: patent US20250042994A1

So I've got a bunch of binders here, and I need their OD450 values.
# target under test: T1, Human CD19-his protein (human, UniProt P15391 20-291)
# T1 construct: bought protein; also called human CD19 protein; recombinant human CD19-His; not shown: His tag
# T1 sequence (looked up): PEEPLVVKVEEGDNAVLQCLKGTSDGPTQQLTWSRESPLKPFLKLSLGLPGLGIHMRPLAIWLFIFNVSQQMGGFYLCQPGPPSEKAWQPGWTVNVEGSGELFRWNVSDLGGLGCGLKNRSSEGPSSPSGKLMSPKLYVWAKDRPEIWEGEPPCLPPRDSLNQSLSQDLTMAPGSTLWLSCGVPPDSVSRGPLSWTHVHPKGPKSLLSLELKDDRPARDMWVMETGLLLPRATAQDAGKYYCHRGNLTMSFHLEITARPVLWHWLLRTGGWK
# assay text: ELISA, antibody at 0.10 nM

Entry F5.10.6 (antibody, human IgG1, V domains shown, human-murine chimeric antibody, human IgG1) VH: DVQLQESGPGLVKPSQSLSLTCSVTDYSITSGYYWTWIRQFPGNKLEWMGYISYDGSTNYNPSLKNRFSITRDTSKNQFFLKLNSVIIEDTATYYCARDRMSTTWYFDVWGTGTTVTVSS VL: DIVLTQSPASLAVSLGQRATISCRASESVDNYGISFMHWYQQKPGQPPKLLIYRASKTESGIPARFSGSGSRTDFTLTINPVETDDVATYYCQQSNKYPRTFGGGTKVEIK has what OD450?
0.68

Entry F4.15.9 (antibody, human IgG1, V domains shown, human-murine chimeric antibody, human IgG1) VH: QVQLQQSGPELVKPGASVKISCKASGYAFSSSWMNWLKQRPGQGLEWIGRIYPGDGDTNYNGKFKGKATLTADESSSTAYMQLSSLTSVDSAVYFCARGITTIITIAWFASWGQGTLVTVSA VL: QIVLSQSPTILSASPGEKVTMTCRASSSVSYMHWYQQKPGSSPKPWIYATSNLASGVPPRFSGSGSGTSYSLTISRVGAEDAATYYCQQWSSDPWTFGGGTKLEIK has what OD450?
1.06

Entry F4.21.2 (antibody, human IgG1, V domains shown, human-murine chimeric antibody, human IgG1) VH: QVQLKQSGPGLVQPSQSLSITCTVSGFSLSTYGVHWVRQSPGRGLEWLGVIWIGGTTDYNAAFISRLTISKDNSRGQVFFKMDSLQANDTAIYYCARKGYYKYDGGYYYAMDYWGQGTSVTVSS VL: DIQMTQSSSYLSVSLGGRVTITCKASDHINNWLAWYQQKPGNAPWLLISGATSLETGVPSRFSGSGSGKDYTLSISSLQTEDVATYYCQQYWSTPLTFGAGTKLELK has what OD450?
1.1

Entry F3.113.16 (antibody, human IgG1, V domains shown, human-murine chimeric antibody, human IgG1) VH: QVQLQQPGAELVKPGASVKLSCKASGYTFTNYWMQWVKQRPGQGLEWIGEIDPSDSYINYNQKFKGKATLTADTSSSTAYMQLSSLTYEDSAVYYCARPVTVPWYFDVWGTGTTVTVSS VL: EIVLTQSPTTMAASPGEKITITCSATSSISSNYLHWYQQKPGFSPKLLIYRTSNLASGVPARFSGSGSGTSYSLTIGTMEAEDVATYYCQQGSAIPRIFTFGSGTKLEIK has what OD450?
0.11

Entry F4.4.6 (antibody, human IgG1, V domains shown, human-murine chimeric antibody, human IgG1) VH: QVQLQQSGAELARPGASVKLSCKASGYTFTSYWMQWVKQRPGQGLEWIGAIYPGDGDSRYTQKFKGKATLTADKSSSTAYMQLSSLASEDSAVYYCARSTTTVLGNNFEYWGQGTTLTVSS VL: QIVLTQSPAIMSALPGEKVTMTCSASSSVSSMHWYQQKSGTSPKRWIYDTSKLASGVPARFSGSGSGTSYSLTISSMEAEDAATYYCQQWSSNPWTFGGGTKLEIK has what OD450?
0.37
